# Procedure Text: Megestrol Acetate in plasma samples by GC/MS
# Assay type: in vivo
# Test Settings: human, 6 mg, Sub 6, 6 mg dose, 4 h post dosing
Measurement Name: concentration at 4 h
Could you give the number and then its unit, please?

Query: // query concentration at 4 h value for entry CC(=O)O[C@]1(C(C)=O)CC[C@H]2[C@@H]3C=C(C)C4=CC(=O)CC[C@]4(C)[C@H]3CC[C@@]21C [megestrol acetate]
Reply: 12.6 ng/mL

###

# Procedure Text: Megestrol Acetate in plasma samples by GC/MS
# Type: in vivo
# Test Settings: human, 1.5 mg, Sub 5, 1.5 mg dose, 2 h post dosing
Measurement Name: concentration at 2 h (ng/mL)
The figure you give is taken to be in ng/mL; do not add the unit.

Query: Name the recorded concentration at 2 h for CC(=O)O[C@]1(C(C)=O)CC[C@H]2[C@@H]3C=C(C)C4=CC(=O)CC[C@]4(C)[C@H]3CC[C@@]21C [megestrol acetate] .
Reply: 2.75
